# method: MTX/GLPG3970 DDI study: plasma pharmacokinetics
# Type: in vivo, human
# experimental.conditions: human, plasma, oral, 7.5 mg, AUC0–∞, geometric LS mean (95% CI), MTX 7.5 mg alone, Day 1 (n = 13)
observed.property: AUC(0-inf) (ng·h/mL)
Output spec: scalar in ng·h/mL, unitless text.

Q: Name the recorded AUC(0-inf) for CN(Cc1cnc2nc(N)nc(N)c2n1)c1ccc(C(=O)N[C@@H](CCC(=O)O)C(=O)O)cc1 [MTX, methotrexate, reference compound] .
A: 677

----------
# method: SSZ/GLPG3970 DDI study: plasma pharmacokinetics
# Type: in vivo, human
# experimental.conditions: human, plasma, oral, AUC0–∞, geometric LS mean (95% CI), GLPG3970 350 mg + SSZ 1,000 mg, Day 5 (n = 7)
Record form. Attribute: AUC(0-inf). Fill in for each entry.
Output spec: scalar in µg·h/mL, unitless text.

Q: Name the recorded AUC(0-inf) for Nc1ccc(S(=O)(=O)Nc2ccccn2)cc1 [SPD, sulfapyridine] .
A: 113

Q: Name the recorded AUC(0-inf) for O=C(O)c1cc(/N=N/c2ccc(S(=O)(=O)Nc3ccccn3)cc2)ccc1O [SSZ, sulfasalazine, reference compound] .
A: 109

----------
# method: SSZ/GLPG3970 DDI study: plasma pharmacokinetics
# Type: in vivo, human
# experimental.conditions: human, plasma, oral, C max, geometric LS mean (95% CI), GLPG3970 350 mg + SSZ 1,000 mg, Day 5 (n = 7)
observed.property: Cmax
Just so you know, I need the unit written after the number.

Q: Name the recorded Cmax for O=C(O)c1cc(/N=N/c2ccc(S(=O)(=O)Nc3ccccn3)cc2)ccc1O [SSZ, sulfasalazine, reference compound] .
A: 12 µg/mL

Q: Name the recorded Cmax for Nc1ccc(S(=O)(=O)Nc2ccccn2)cc1 [SPD, sulfapyridine] .
A: 5.09 µg/mL

Data provenance: paper PMC11739741
